Listing of recorded GI50 by entry.
- Test system: LXFL 529
- EXPERIMENT_SUMMARY: NCI tumour cell line growth inhibition, 48 h
The source made the active and inactive calls. No stated cut-off is given here; in the data, active = GI50 up to about 1.1 µM and inactive = higher.
PROPERTY_MEASURED: GI50

molecule=COc1ccc(NC(=O)C(=O)Cc2ccc([N+](=O)[O-])c([N+](=O)[O-])c2CC(=O)C(=O)Nc2ccc(OC)cc2OC)c(OC)c1 property_measured=GI50 measured="> 100 µM (inactive)"
molecule=Cc1ccc2c(c1-c1ccccc1)C(=O)OC2 property_measured=GI50 measured="> 100 µM (inactive)"
molecule=Cc1ccc(/C=C/C(=O)C(C)(C)CN2CCCCC2)cc1 property_measured=GI50 measured="6.62 µM (inactive)"
molecule="COc1ccc(C2C(Cl)C(=O)N2NC(=O)c2ccc(NC(C)=O)cc2)cc1OC (stereo not given)" property_measured=GI50 measured="> 100 µM (inactive)"
molecule=O=C(N/C(=C\c1cc(Cl)ccc1Cl)c1nc2ccccc2[nH]1)c1ccccc1 property_measured=GI50 measured="24.5 µM (inactive)"
